Data origin, for the record: the MegaScale stability set (Tsuboyama et al. 2023)

B1: 5KPH (parent)
chain: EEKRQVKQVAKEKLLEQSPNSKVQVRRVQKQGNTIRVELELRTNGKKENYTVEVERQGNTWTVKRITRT

Variants of: B1
Assay: folding stability dG (cDNA display proteolysis); higher = more stable
Conditions: PBS, room temperature
measured-endpoint: folding stability dG (kJ/mol)
Note: unit kJ/mol is implicit; provide only the numeric part.

**Query** What does the data say about its folding stability dG? Entry: EEKRQVKQVAKEKLLEQSPNSKVQVRRVQKQGNTIRVELETRTNGKKENYTVEVERQGNTWTVKRITRT [L41T]
**Result** 14.1

**Query** What does the data say about its folding stability dG? Entry: EEKRQVKQVAKEKLLEQSQNSKVQVRRVQKQGNTIRVELELRTNGKKENYTVEVERQGNTWTVKRITRT [P19Q]
**Result** 11.9

**Query** What does the data say about its folding stability dG? Entry: EEKRQVKQVAKEKLLEQSPNSKVQVRRVQKQGNTIRVELELRTNGKKENYTVEVERQGNTWTVKRITVT [R68V]
**Result** 14.5

**Query** What does the data say about its folding stability dG? Entry: EEKRQVKQVAKEKLLEQSPNSKVQVRRVQKQGNTIRVELELRTNGKKENYTVEVERQGNTTTVKRITRT [W61T]
**Result** 9.25

**Query** What does the data say about its folding stability dG? Entry: EEKRQVKQVAKEKLLEQSPNSKVQVRRVQKQGNTIRVELELRTNGKKENYTVEVERQLNTWTVKRITRT [G58L]
**Result** 13.9

**Query** What does the data say about its folding stability dG? Entry: EEKRQVKQVAKEMLLEQSPNSKVQVRRVQKQGNTIRVELELRTNGKKENYTVEVERQGNTWTVKRITRT [K13M]
**Result** 15.5

**Query** What does the data say about its folding stability dG? Entry: EEKRQVKQVAKEKLLEQSPNSKVTVRRVQKQGNTIRVELELRTNGKKENYTVEVERQGNTWTVKRITRT [Q24T]
**Result** 17.7

**Query** What does the data say about its folding stability dG? Entry: EEKRCVKQVAKEKLLEQSPNSKVQVRRVQKQGNTIRVELELRTNGKKENYTVEVERQGNTWTVKRITRT [Q5C]
**Result** 14.8

**Query** What does the data say about its folding stability dG? Entry: EEKRQVKQVAKEKLLEQSPNVKVQVRRVQKQGNTIRVELELRTNGKKENYTVEVERQGNTWTVKRITRT [S21V]
**Result** 13.3

**Query** What does the data say about its folding stability dG? Entry: EEKRQVKQVAKEKLLEQSPNSKVQVRRVQKQGNTIRVELELRTNGKKENYTVEVERQGNTWTVKRITRK [T69K]
**Result** 15.6

**Query** What does the data say about its folding stability dG? Entry: EEKRQVKQVAKEKLLEQSPNSKVQVRRVQKQGNTIRVELELRTNGKKENYTVEVERQGFTWTVKRITRT [N59F]
**Result** 14.8
